# tested.system: human IgEλ (U266 derived) (human, UniProt P01854 1-546)
# Sequence (P01854 whole entry): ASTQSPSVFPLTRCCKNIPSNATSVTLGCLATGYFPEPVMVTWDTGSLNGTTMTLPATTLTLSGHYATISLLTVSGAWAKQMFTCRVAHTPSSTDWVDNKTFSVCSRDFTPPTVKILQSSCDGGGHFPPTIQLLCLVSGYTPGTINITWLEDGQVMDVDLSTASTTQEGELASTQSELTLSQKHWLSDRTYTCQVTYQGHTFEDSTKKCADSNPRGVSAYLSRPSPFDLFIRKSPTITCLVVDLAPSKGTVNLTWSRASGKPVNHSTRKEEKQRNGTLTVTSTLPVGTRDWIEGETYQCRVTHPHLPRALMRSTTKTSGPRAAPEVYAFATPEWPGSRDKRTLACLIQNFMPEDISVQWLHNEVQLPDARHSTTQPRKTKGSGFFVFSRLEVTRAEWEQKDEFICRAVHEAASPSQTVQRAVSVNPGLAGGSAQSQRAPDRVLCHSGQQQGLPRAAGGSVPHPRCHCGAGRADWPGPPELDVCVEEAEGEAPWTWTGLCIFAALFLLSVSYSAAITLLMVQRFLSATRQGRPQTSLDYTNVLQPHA
# assay.summary: HTRF receptor-ligand competition, scFv titrated; Eu-cryptate human IgE (U266) binding to human FcεRI-Fc; geomean
readout: IC50 (nM)
Give the number; nM is assumed, so skip it.

Solved cases (3 shown):
>  <binder>
Antibody 29 (scFv) (scFv, V domains shown, purified scFv) VH: EVQLLESGGGLVQPGGSLRLSCAASGFTFSSYAMSWVRQAPGKGLEWVSAISGSGGRTYYADSVKGRFTISRDNSKNTLYLQMNSLRAEDTAVYYCARLTFPAITRGFDYWGRGTLVTVSS VL: SYVLTQPPSVSVSPGQTASITCSGDKLGDTYASWYRQRSGQSPVLVIYQDDKRPSGIPERFSGSNSGNTATLTISGTHTMDEADYYCLAWDTRTSGAVFGGGTKLTVL

>  <readout>
IC50

>  <numeric.readout>
6

$$$$
>  <binder>
Antibody 4 (scFv) (scFv, V domains shown, purified scFv) VH: EVQLLESGGGLVQPGGSLRLSCAASGFTFSSYAMSWVRQAPGKGLEWVSAISGSGGRTYYADSVKGRFTISRDNSKNTLYLQMNSLRAEDTAVYYCARHIAVAGTRGFDYWGRGTPVTVSS VL: SFVLTQPPSVSVSPGQTASITCSGDKLGDTYASWYRQRSGQSPVLVIYQDDKRPSGIPERFSGSNSGNTATLTISGTHTMDEADYYCLAWDTRTSGAVFGGGTKLTVL

>  <readout>
IC50

>  <numeric.readout>
5.4

$$$$
>  <binder>
Antibody 8 (scFv) (scFv, V domains shown, purified scFv) VH: EVQLLESGGGLVQPGGSLRLSCAAPGFTFSSYAMSWVRQAPGKGLEWVSAISGGSGGRTYYADSVKGRFTISRDNSKNTLYLQMNSLRAEDTAVYYCARHIAVAGTRGFDYWGRGTLVTVSS VL: SYVLTQPPSVSVSPGQTASITCSGDKLGDTYASWYRQRSGQSPVLVIYQDDKRPSGIPERFSGSNSGNTATLTISGTHTMDEADYYCLAWDTRTSGAVFGGGTKLTVL

>  <readout>
IC50

>  <numeric.readout>
8

$$$$

Next binder, IC50 to be filled in.
Ask | Return reported IC50; argument: Antibody 13 (scFv) (scFv, V domains shown, purified scFv) VH: EVQLLESGGGLVQPGGSLRLSCAASGFTFSSYAMSWVRQAPGKGLEWVSAISGSGGRTYYADSVKGRFAVSRDNSKNTLYLQMNSLRAEDTAVYYCARHIAVAGTRGFDYWGRGTLVTVSS VL: SYVLTQPPSVSVSPGQTASITCSGDKLGDTYASWYRQRSGQSPVLVIYQDDRRPSGIPERFSGSNSGNTATLTISGTHTMDEADYYCLAWDTRTSGAVFGGGTKLTVL
Reply | 9
